The origin of these recorded values is patent US20250099420A1.

We begin with a simple list: items and their reported Averaged Max % Response (±St. Dev.).
- TARGET_OF_ASSAY: GPR139 (Homo sapiens, UniProt Q6DWJ6)
- Sequence (Q6DWJ6 whole entry): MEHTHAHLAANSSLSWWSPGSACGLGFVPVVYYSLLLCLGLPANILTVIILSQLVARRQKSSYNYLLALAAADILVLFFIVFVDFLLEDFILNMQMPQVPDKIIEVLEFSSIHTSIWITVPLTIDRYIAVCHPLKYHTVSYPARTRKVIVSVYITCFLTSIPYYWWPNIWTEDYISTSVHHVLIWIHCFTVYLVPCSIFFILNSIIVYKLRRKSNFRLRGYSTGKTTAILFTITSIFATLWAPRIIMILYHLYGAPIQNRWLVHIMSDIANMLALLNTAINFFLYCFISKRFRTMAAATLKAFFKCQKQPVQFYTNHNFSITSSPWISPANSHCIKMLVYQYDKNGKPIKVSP
- ASSAY_NOTES: GPR139 Agonist titration / agonist counterscreen assay (calcium detection, HEK-GPR139 cells)
- Type: cell-based
- Parameters: expressed in transfected cells; host or cells: HEK Aequorin cells, Maxcyte transient transfection
- COND: GPR139 Agonist Activity; activity relative to known control

{"columns": ["MOLECULE", "Averaged Max % Response (±St. Dev.) / %"],
 "data": [
  ["CCn1c(=O)c([N+](=O)[O-])c(NCCc2ccc(OC)cc2)c2ccccc21 [SR-01000918303]", 84.68],
  ["O=C(COc1ccc2ccccc2c1)NNC(=O)c1cccc([N+](=O)[O-])c1 [SR-01000362228]", 84.08],
  ["CC12C=CC3(CN(Cc4ccccc4)C(=O)C3C1C(=O)NCc1ccco1)O2 (stereo not shown) [SR-01000582958]", 101.07],
  ["Cc1ccc(CCNC(=O)Cn2nc(-c3ccccc3)ccc2=O)cc1 [SR-01000145157]", 83.58],
  ["Cc1ccc(CNC(=O)Cn2nc(-c3ccc(C)cc3)ccc2=O)cc1 [SR-01000145456]", 88.21],
  ["O=C(CC1C(=O)N(c2ccccc2)C(=O)N1Cc1ccc2c(c1)OCO2)Nc1ccc(Cl)cc1 (stereo not shown) [SR-01000428566]", 84.07],
  ["COc1cc(OC)cc(-c2nnc(NC(=O)Cc3cccc4ccccc34)o2)c1 [SR-01000012205]", 109.87],
  ["Cc1c2cnn(CC(=O)NC(C)c3ccccc3)c(=O)c2c(C)n1Cc1ccc(F)cc1 (stereo not shown) [SR-01000138428]", 81.78],
  ["O=C(NNC(=O)C1CC1c1ccccc1)Nc1cccc(Cl)c1 (stereo not shown) [SR-01000202338]", 79.48],
  ["O=C(Cn1ccc2ccccc21)NCCCC(=O)Nc1cccc2cccnc12 [SR-01000926510]", 89.57],
  ["CCOC(=O)c1ccc(NC(=O)Cn2c(C)c(C=O)c3ccccc32)cc1 [SR-01000248261]", 81.40],
  ["O=C(c1ccccc1)C1CCCCC1S(=O)(=O)O (stereo not shown) [SR-01000197834]", 95.96],
  ["O=C(CN1C(=O)OC(O)(c2ccc(Cl)cc2Cl)C1=O)Nc1ccccc1Cl (stereo not shown) [SR-01000062419]", 105.27],
  ["Cc1ccc(NC(=O)Cn2ncc3c2-c2ccccc2OC3)cc1F [SR-01000135068]", 114.56],
  ["COc1ccc(C2=NN(CC(=O)NCCCN(C)c3ccccc3)C(=O)CC2)cc1 [SR-01000145949]", 122.18],
  ["COc1ccc(CSc2nnc(-c3cccnc3)n2N)cc1 [SR-01000284323]", 94.97],
  ["O=C(COc1ccccc1F)NNC(=O)CSc1ccc2ccccc2c1 [SR-01000068761]", 123.40],
  ["O=C(CN1CCN(Cc2ccccc2Cl)C1=O)NCc1ccccc1Cl [SR-01000125458]", 119.40],
  ["O=C(CC(C(=O)N1CCc2ccccc21)n1ccnc1)NCC1COc2ccccc2O1 (stereo not shown) [SR-01000144615]", 108.00],
  ["O=C(Cn1ccc([N+](=O)[O-])n1)NCCc1ccc(Cl)cc1 [SR-01000299915]", 99.72],
  ["O=C(CSc1ccc2ccccc2c1)NNC(=O)c1ccc(Br)s1 [SR-01000069345]", 114.67],
  ["COc1cc(OC)cc(C(=O)NNC(=O)COc2cc(C)c(Cl)c(C)c2)c1 [SR-01000358286]", 88.73]
]}
